Origin of values: patent US8183272B2

Biological target: human calcium-sensing receptor (CaSR) (Homo sapiens, UniProt P41180)
Assay: Inhibitory activity on calcium-sensing receptor (CaSR) using intracellular calcium increase as an indicator (FLIPR, CHO/hCaSR)
Conditions: CHO/hCaSR cells; intracellular Ca increase induced by CaCl2; test compound 1.05 to 10,000 nM
Kindly state IC50 for each of the entries shown.

Recorded result, Cc1cccc([C@@H](C)OC[C@H](O)CNC(C)(C)CC2Cc3ccccc3C2)c1CCCCC(=O)O , IC50: ≤ 2280 nM

Recorded result, C[C@@H](OC[C@H](O)CNC(C)(C)CC1Cc2ccccc2C1)c1c(F)cccc1CCC(=O)O [31 low polarity] , IC50: ≤ 2400 nM

Recorded result, Cc1cc(-c2ccccc2[C@@H](C)OC[C@H](O)CNC(C)(C)CC2Cc3ccccc3C2)ccc1C(=O)O , IC50: ≤ 2190 nM

Recorded result, C[C@@H](OC[C@H](O)CNC(C)(C)CC1Cc2ccccc2C1)c1cc(F)c(Cl)cc1CCC(=O)O , IC50: ≤ 2240 nM

Recorded result, CC(OC[C@H](O)CNC(C)(C)CC1Cc2ccccc2C1)c1c(CCC(=O)O)ccc(F)c1F (stereo partly shown) , IC50: ≤ 2310 nM

Recorded result, C[C@@H](OC[C@H](O)CNC(C)(C)CC1Cc2ccccc2C1)c1cc(F)ccc1CCC(=O)O , IC50: ≤ 2400 nM

Recorded result, C[C@@H](OC[C@H](O)CNC(C)(C)CC1Cc2ccccc2C1)c1ccccc1CCCCC(=O)O , IC50: ≤ 2350 nM

Recorded result, CCC[C@@H](OC[C@H](O)CNC(C)(C)CC1Cc2ccccc2C1)c1ccc(C)cc1CCC(=O)O , IC50: ≤ 2280 nM

Recorded result, C[C@@H](OC[C@H](O)CNC1(CC2Cc3ccccc3C2)CC1)c1ccccc1CCC(=O)O , IC50: ≤ 2510 nM

Recorded result, C[C@@H](OC[C@H](O)CNC(C)(C)CC1Cc2ccccc2C1)c1ccccc1CCCC(=O)O , IC50: ≤ 2420 nM

###

Biological target: human calcium-sensing receptor (CaSR) (Homo sapiens)
Sequence (P41180 20-1078): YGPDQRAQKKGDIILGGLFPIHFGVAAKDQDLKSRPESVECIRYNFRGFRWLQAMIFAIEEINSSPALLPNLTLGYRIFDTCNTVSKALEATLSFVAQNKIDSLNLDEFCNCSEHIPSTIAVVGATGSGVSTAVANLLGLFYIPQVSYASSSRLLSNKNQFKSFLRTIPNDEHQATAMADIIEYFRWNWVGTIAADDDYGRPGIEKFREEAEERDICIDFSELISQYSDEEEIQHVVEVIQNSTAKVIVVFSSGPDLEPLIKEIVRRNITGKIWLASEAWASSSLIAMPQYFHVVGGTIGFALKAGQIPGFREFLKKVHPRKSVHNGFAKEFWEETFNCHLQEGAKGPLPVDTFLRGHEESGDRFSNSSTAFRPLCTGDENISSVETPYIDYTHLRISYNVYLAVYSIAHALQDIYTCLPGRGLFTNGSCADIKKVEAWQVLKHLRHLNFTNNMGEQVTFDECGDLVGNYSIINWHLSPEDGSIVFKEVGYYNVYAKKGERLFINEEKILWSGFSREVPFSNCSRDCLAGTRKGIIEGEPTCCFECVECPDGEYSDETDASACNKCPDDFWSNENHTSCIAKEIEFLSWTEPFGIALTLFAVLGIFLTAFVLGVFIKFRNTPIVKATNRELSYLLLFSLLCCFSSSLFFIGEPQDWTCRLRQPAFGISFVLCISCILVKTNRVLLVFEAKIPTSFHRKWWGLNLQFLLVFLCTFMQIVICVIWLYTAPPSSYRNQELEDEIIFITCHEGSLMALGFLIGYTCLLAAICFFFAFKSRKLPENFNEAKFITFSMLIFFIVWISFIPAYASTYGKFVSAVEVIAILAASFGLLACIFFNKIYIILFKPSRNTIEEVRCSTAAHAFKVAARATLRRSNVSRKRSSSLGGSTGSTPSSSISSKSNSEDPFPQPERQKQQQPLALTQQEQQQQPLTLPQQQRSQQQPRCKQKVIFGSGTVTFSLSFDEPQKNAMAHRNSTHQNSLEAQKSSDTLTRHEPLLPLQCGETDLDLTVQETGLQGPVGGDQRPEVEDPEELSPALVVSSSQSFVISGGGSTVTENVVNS
Assay: Inhibitory activity on calcium-sensing receptor (CaSR) using intracellular calcium increase as an indicator (FLIPR, CHO/hCaSR)
Settings: CHO/hCaSR cells; intracellular Ca increase induced by CaCl2; test compound 1.05 to 10,000 nM
pIC50: −log10 of the molar value.
Kindly state pIC50 for each of the entries shown.

Recorded result, C[C@@H](OC[C@H](O)CNC(C)(C)CC1Cc2ccccc2C1)c1ccccc1CCc1nn[nH]n1 , pIC50: ≥ 5.67

Recorded result, C[C@@H](OC[C@H](O)CNC(C)(C)CC1Cc2ccccc2C1)c1ccccc1CCC(=O)O , pIC50: ≥ 5.60

Recorded result, C[C@@H](OC[C@H](O)CNC(C)(C)CC1Cc2ccccc2C1)c1cc(C(F)(F)F)ccc1CCCCC(=O)O , pIC50: ≥ 5.69

Recorded result, CCC[C@@H](OC[C@H](O)CNC(C)(C)CC1Cc2ccccc2C1)c1ccc(Cl)cc1CCC(=O)O , pIC50: ≥ 5.66

Recorded result, CCOc1ccc(CCC(=O)O)c([C@@H](C)OC[C@H](O)CNC(C)(C)CC2Cc3ccccc3C2)c1 , pIC50: ≥ 5.64

Recorded result, CC[C@@H](OC[C@H](O)CNC(C)(C)CC1Cc2ccccc2C1)c1cc(F)c(F)cc1CCC(=O)O , pIC50: ≥ 5.65

Recorded result, COc1cc(F)cc([C@@H](C)OC[C@H](O)CNC(C)(C)CC2Cc3ccccc3C2)c1CCC(=O)O , pIC50: ≥ 5.65
